test: Cytotoxicity against human HEK293 cells assessed as reduction in cell viability measured after 48 hrs by resazurin assay; assay type: cell-based
endpoint_label: CC50 at 48 h (µM)

- N=C(N)c1ccc(OCCCCCOc2ccc(C(=N)N)cc2)cc1 [PENTAMIDINE]: 0.67
- COc1ccc(C[C@H](N)C(=O)N[C@H]2[C@@H](O)[C@H](n3cnc4c(N(C)C)ncnc43)O[C@@H]2CO)cc1 [PUROMYCIN]: 0.23
- CCCn1c(NC(=O)Cc2ccc(Cl)cc2)nc2ccc(F)cc21: 14
- CCCn1c(NC(=O)Nc2ccc(Cl)cc2)nc2ccccc21: 5.2

###

tested on: Trypanosoma brucei brucei; experiment: Antitrypanosomal activity against Trypanosoma brucei brucei Lister 427 assessed as parasite growth inhibition measured after 48 hrs by alamar blue assay; details: Lister 427, 48 h
endpoint_label: IC50 (µM)

• CCCn1c(NC(=O)Cc2ccc(Cl)cc2)nc2cccc(C)c21 = 9.4
• CCCCC(=O)Nc1nc2ccccc2n1CCC = 11
• CCCn1c(NC(=O)Cc2ccc(Cl)cc2)nc2ccc(F)cc21 = 0.9

###

assay: Cytotoxicity against human HepG2 cells assessed as reduction in cell viability measured after 48 hrs by CellTiter-Glo assay; format: cell-based
endpoint_label: CC50 at 48 h

- CCCn1c(NC(=O)Cc2ccccc2OC)nc2ccccc21: > 50 µM
- CCCn1c(NC(=O)Cc2ccc(Cl)cc2)nc2c(Br)cccc21: > 50 µM
- O=C(Cc1ccc(Cl)cc1)Nc1nc2ccccc2[nH]1: > 50 µM

###

assay: Lipophilicity, logP of the compound; format: physicochemical; details: octanol/water
endpoint_label: logP

- CCCn1c(NC(=O)Cc2cccc3ccccc23)nc2ccccc21: 5.1
- CCCn1c(NC(=O)Cc2ccc(-c3ccccc3)cc2)nc2ccccc21: 5.8
- C=CCc1c(NC(=O)Cc2ccc(Cl)cc2)ncc2ccccc12: 5.1
- O=C(Cc1ccc(Cl)cc1)Nc1nc2ccccc2[nH]1: 3.6
- CCCn1c(NC(=O)CCc2ccccc2)nc2ccccc21: 4.6
- CCCn1c(NC(=O)Cc2ccccc2OC)nc2ccccc21: 4
- CCCn1c(NC(=O)Cc2ccc(Cl)cc2)nc2ccc(C)cc21: 5.2
- CCCn1c(NC(=O)Cc2ccc(Cl)cc2)nc2cccc(C)c21: 5.2
- CCCn1c(NC(=O)Cc2ccccc2C)nc2ccccc21: 4.6
- CCCn1c(NC(=O)Cc2ccccc2Br)nc2ccccc21: 4.9
- CCCCC(=O)Nc1nc2ccccc2n1CCC: 3.9
- CCCn1c(NC(=O)Cc2cccc(OC)c2)nc2ccccc21: 4
- CCCn1c(NC(=O)Cc2ccc(F)cc2)nc2ccccc21: 4.3
- CCCc1c(NC(=O)Cc2ccc(Cl)cc2)ncc2ccccc12: 5.4
- CCCn1c(NC(=O)/C=C/c2ccccc2)nc2ccccc21: 4.6
- CCCn1c(NC(=O)Cc2ccc(Br)cc2)nc2ccccc21: 4.9
- CCCn1c(NC(=O)Cc2ccc(Cl)cc2)nc2ccc(F)cc21: 4.9
- CCCn1c(NC(=O)Cc2cccc(F)c2)nc2ccccc21: 4.3
- CCCCCCCCC(=O)Nc1nc2ccccc2n1CCC: 5.7
- CCCn1c(NC(=O)Cc2cccc(Br)c2)nc2ccccc21: 4.9

###

assay: Lipophilicity, logP of the compound; assay type: physicochemical; conditions: octanol/water
endpoint_label: logP

* CCCn1c(NC(=O)Cc2ccc(Cl)cc2)nc2c(OC)cccc21 | 4.6
* Cn1c(NC(=O)Cc2ccc(Cl)cc2)nc2ccccc21 | 3.8
* CCCn1c(NC(=O)Cc2ccc(Cl)cc2)nc2cc(Cl)ccc21 | 5.3
* CCCn1c(NC(=O)Cc2cccc(C)c2)nc2ccccc21 | 4.6
* CCCn1c(NC(=O)Cc2ccc(C(F)(F)F)cc2)nc2ccccc21 | 5
* CCCn1c(NC(=O)Cc2ccc(Cl)nc2)nc2ccccc21 | 3.7
* CCCn1c(NC(=O)Cc2cccc(Cl)c2)nc2ccccc21 | 4.7
* CCCn1c(NC(=O)Cc2ccccc2Cl)nc2ccccc21 | 4.7

###

experiment: Cytotoxicity against rat H9c2 cells assessed as reduction in cell viability; format: cell-based
Below, each entry is listed with its recorded CC50.
endpoint_label: CC50

• CCCn1c(NC(=O)Cc2cccc(Cl)c2)nc2ccccc21 = > 50 µM
• CCCc1c(NC(=O)Cc2ccc(Cl)cc2)ncc2ccccc12 = 3.2 µM
• CCCn1c(C(=O)NCc2ccc(Cl)cc2)nc2ccccc21 = 16 µM
• CCCn1c(NC(=O)Cc2ccc(Cl)cc2)nc2c(Br)cccc21 = > 50 µM
• CCCn1c(NC(=O)Cc2ccc(Cl)nc2)nc2ccccc21 = > 50 µM
• CCCn1c(NC(=O)Cc2ccc(OC(F)(F)F)cc2)nc2ccccc21 = 10 µM
• CCCCCn1c(NC(=O)Cc2ccc(Cl)cc2)nc2ccccc21 = > 50 µM

###

system: Trypanosoma cruzi; experiment: Antitrypanosomal activity against Trypanosoma cruzi infected in rat H9c2 infected with trypomastigotes from parasite-infected monkey LLC-MK2 cells measured after 72 hrs by DRAQ5 DNA dye based microscopic imaging analysis; format: functional, organism-based; details: H9c2, 72 h
endpoint_label: IC50 (nM)

• CCCCC(=O)Nc1nc2ccccc2n1CCC = 13000
• CCCn1c(NC(=O)Cc2cccc(C)c2)nc2ccccc21 = 2000
• CCCn1c(NC(=O)c2ccccc2)nc2ccccc21 = 5000
• CCCn1c(NC(=O)Cc2ccccc2)nc2ccccc21 = 4000
• CCCn1c(NC(=O)Cc2ccc(C(F)(F)F)cc2)nc2ccccc21 = 1000
• CCCn1c(NC(=O)Cc2cccc(F)c2)nc2ccccc21 = 2000
• CCCn1c(NC(=O)Cc2ccc(Cl)cc2)nc2cc(Br)ccc21 = 790
• CCCn1c(NC(=O)Cc2cccc(Br)c2)nc2ccccc21 = 1000
• CCCn1c(NC(=O)/C=C/c2ccccc2)nc2ccccc21 = 1300
• CCCn1c(NC(=O)Cc2ccc(Cl)cc2)nc2cc(Cl)ccc21 = 500
• O=C(Cc1ccc(Cl)cc1)Nc1nc2ccccc2[nH]1 = 50000
• CCCCCCCCC(=O)Nc1nc2ccccc2n1CCC = 2500
• CCCn1c(NC(=O)Cc2ccccc2OC)nc2ccccc21 = 6300
• CCCn1c(NC(=O)Cc2ccc(Cl)cc2)nc2cccc(C)c21 = 1300
• CCCn1c(NC(=O)Cc2ccc(Cl)cc2)nc2ccc(Br)cc21 = 400
• CCCn1c(NC(=O)Cc2ccc3ccccc3c2)nc2ccccc21 = 1300
• CCCn1c(NC(=O)Cc2ccc(OC)cc2)nc2ccccc21 = 3200
• CCCn1c(NC(=O)Cc2ccc(Cl)nc2)nc2ccccc21 = 7900
• CCCn1c(NC(=O)Cc2cccc(Cl)c2)nc2ccccc21 = 1600
• CCCn1c(NC(=O)Cc2ccc(Br)cc2)nc2ccccc21 = 2000
• CCCn1c(NC(=O)Cc2ccccc2F)nc2ccccc21 = 3200
• CCCn1c(NC(=O)Cc2ccc(Cl)cc2)nc2ccc(Cl)cc21 = 500
• CCCn1c(NC(=O)Cc2ccc(Cl)cc2)nc2c(Br)cccc21 = 10000
• CCCn1c(NC(=O)Cc2ccc(OC(C)=O)cc2)nc2ccccc21 = 32000
• O=C(Cn1ccnc1[N+](=O)[O-])NCc1ccccc1 = 1580
• CCCn1c(NC(=O)Cc2ccc(Cl)cc2)nc2ccc(F)cc21 = 1300
• CCn1c(NC(=O)Cc2ccc(Cl)cc2)nc2ccccc21 = 2500
• CCCn1c(NC(=O)Cc2ccc(OC(F)(F)F)cc2)nc2ccccc21 = 1000
• CCCn1c(NC(=O)Cc2ccccc2Cl)nc2ccccc21 = 2000
• CCCn1c(NC(=O)Cc2cccc(OC)c2)nc2ccccc21 = 4000
• CCCCn1c(NC(=O)Cc2ccc(Cl)cc2)nc2ccccc21 = 1600
• CCCn1c(C(=O)NCc2ccc(Cl)cc2)nc2ccccc21 = 10000
• CCCn1c(NC(=O)Cc2cccc3ccccc23)nc2ccccc21 = 1000
• Cn1c(NC(=O)Cc2ccc(Cl)cc2)nc2ccccc21 = 3200
• CCCn1c(NC(=O)Cc2ccc(-c3ccccc3)cc2)nc2ccccc21 = 1000
• CCCCCn1c(NC(=O)Cc2ccc(Cl)cc2)nc2ccccc21 = 1000
• CCCn1c(NC(=O)Cc2ccc(F)cc2)nc2ccccc21 = 2500
